B1: PSD2 (parent)
chain: LTHFSRRYCQCNPDDSTSEDGIHT

Variants of: B1
Assay: protein stability index of a GFP-peptide fusion (GPS, HEK-293T) (PSI 1-6); higher = more stable;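 note: lentivirally expressed fusions sorted by FACS into six bins by GFP to DsRed ratio, PSI derived from sequencing read proportions per bin multiplied by bin number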
Conditions: c terminus: a fixed tail appended
Use Y when the recorded protein stability index is no lower than 3; use N when it is lower.

| variant descriptor | qualitative label |
| --- | --- |
| C11M | Y |
| T24G | Y |
| F4P | Y |
| F4V | Y |
| D15V | N |
| T2P | Y |
| G21N | Y |
| P13N | Y |
| C9H | Y |
| E19P | N |

Lookup: protein stability index >= 3 for N12A ?
Found: Y

Lookup: protein stability index >= 3 for S18K ?
Found: N

Lookup: protein stability index >= 3 for D14W ?
Found: N

Lookup: protein stability index >= 3 for Q10D ?
Found: Y

Lookup: protein stability index >= 3 for T17L ?
Found: N

Lookup: protein stability index >= 3 for E19I ?
Found: N

Lookup: protein stability index >= 3 for R7L ?
Found: Y

Lookup: protein stability index >= 3 for I22E ?
Found: Y
